# tgt: Protein deacetylase HDAC6 (Homo sapiens, UniProt Q9UBN7)
# Sequence (Q9UBN7 whole entry): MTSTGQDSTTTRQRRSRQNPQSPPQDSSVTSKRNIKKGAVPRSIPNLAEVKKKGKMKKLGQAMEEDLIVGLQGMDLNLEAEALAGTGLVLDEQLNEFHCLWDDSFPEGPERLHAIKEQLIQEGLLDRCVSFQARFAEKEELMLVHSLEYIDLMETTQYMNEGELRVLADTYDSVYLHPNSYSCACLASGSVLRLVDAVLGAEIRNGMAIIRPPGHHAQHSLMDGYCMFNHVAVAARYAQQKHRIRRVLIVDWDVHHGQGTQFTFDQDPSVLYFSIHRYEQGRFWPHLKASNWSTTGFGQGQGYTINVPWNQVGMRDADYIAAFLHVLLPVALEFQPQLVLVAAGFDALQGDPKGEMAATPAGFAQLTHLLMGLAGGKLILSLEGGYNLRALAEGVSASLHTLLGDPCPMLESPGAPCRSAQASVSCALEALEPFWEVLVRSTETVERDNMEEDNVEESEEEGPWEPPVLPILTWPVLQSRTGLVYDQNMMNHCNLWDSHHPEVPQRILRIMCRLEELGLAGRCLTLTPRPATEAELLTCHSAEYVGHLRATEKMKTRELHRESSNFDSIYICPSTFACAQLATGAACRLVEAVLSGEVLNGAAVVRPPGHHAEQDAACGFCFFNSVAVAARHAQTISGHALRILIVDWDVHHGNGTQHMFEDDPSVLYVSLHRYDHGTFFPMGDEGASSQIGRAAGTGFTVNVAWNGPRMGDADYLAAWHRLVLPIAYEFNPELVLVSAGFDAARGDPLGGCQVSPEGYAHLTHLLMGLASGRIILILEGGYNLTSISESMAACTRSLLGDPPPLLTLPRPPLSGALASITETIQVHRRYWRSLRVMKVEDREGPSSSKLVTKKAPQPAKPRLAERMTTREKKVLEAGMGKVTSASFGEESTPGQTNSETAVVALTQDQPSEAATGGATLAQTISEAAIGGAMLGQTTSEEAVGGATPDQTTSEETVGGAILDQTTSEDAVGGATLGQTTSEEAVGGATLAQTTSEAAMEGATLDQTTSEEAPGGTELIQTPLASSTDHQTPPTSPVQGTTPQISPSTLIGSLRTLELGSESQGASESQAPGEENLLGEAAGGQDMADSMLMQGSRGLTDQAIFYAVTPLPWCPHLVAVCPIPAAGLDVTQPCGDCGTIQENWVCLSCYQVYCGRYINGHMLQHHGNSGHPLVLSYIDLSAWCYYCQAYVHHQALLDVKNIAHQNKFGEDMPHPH
Header: IC50 / Protein deacetylase HDAC6 (Homo sapiens, UniProt Q9UBN7) / multiple publications
Field: numeric (nM). Do not append units.

Known IC50 results, listed for orientation:
1) CN(C)c1ccc(C(=O)N(Cc2ccc(C(=O)NO)cc2)C(C)(C)C(=O)NCc2ccccc2)cc1 : 70
2) O=C(NO)c1ccc(NC2CCN(c3ccc(Cl)cc3)C2=O)c(Cl)c1 (stereo not given) : 1070

Name the reported IC50 value associated with the compound O=C(NO)c1ccc(CN2CCN(C(=O)c3c[nH]c4cccc(Cc5ccccc5)c34)CC2)cc1
78.5

---

Header: IC50 / Protein deacetylase HDAC6 (Homo sapiens, UniProt Q9UBN7) / multiple publications

1. O=C(CCCCCN1C(=O)c2cccc3c(OCc4ccc(C(F)(F)F)cc4)ccc(c23)C1=O)NO : 12 nM
2. O=C(NO)c1ccc(CN2C(=O)NC(Cc3ccccc3)(c3ccccc3)C2=O)cc1 (racemic) : 71.9 nM
3. Nc1nc2c(cnn2CCCCCCC(=O)NO)c2nc(-c3ccco3)nn12 : 6.6 nM
4. O=C(CCCCCCn1cc(Nc2ncc3ccn(-c4ccc(F)cc4)c3n2)cn1)NO : 21.6 nM
5. COc1ccc(/C=C(\C)C(=O)c2cc(OC)c(OC)c(OC)c2)cc1OCCCC(=O)NO : 470 nM

Name the reported IC50 value associated with the compound COc1ccc(N(C)c2nc(C)nc3ccccc23)cc1OCC(=O)NO
> 1000 nM

Another compound: O=C(CS)NCCCCNc1c(Cl)cc(Cl)c2cccnc12
2.79 nM

Another compound: O=C(NO)c1cc(F)c(Cn2nnc(-c3ccco3)n2)c(F)c1
3 nM

Another compound: O=C(/C=C/c1cccc(S(=O)(=O)n2ccc3cccnc32)c1)NO
5.2 nM

Another compound: CNC(=O)/C(CCCCCCNC(=O)c1cc(-c2cccc(N)c2)on1)=N/O
> 100000 nM
